The reported numbers originate from ChEMBL document CHEMBL3988442.

# Test system: Wolbachia pipientis
# ASSAY PROCEDURE: Anti-Wolbachia Cell-Based Screen
# Format: functional
# Set-up: scale not given: in the data most compounds retested in dose-response had high values
# CONDITION DESCRIPTION: 5 µM
The whole screen tested about 48,000 compounds, of which about 13,000 (27%) showed an effect of 50% or more. The list shows a part of the results.
OBSERVABLE: Percent Effect
Answer as a quantity: numeral, then unit.

Short answer for COCC(C)NC(=O)N(C)Cc1cc(C)on1 (configuration not stated) : Percent Effect was -2.25%

# Percent Effect (molecule: COc1cccc(C2CCN2C(=O)c2cc(C(C)C)on2)c1 (configuration not stated) ) is 21.92%

Sample O=C(CN1CC(c2nc(-c3ccco3)no2)C1)NCC1CCCO1.O=C(O)C(=O)O (configuration not stated) ; Percent Effect observed: 8.836%

For this molecule ( `CC(C)c1cc(COCCC(=O)O)no1` ), measured Percent Effect is 121.8%

Consider `O=C(Cn1cnc(-c2cccs2)cc1=O)Nc1cccnc1` . Its measured Percent Effect is 14.09%

Looking up `O=C(O)Cn1nc(C2CC2)c2c(-c3cccs3)ccnc21` , I found its Percent Effect recorded as 125.7%

Input `c1cnc2c(c1)nc1n2[C@@H](CNCc2nccs2)COC1` . Output Percent Effect: -1.802%

Sure, the documented Percent Effect for `CC(C)c1cc(CSCCC(=O)O)no1` is 33.59%

Input CC(C)(C)OCCN(Cc1cccc(O)c1)C1CCC(O)CC1 (configuration not stated) . Output Percent Effect: -0.1894%

# Percent Effect of Cc1n[nH]cc1CNC(C(=O)N1CCOCC1)c1ccccc1 (configuration not stated) = 6.045%

Just so you know, measured Percent Effect for `O=C(O)Cn1nc(C2CC2)c2c(-c3ccco3)ccnc21` came out at 121.5%

Lab note: measured Percent Effect of Cc1cc(C)n(CC2CCCN2CCCS(=O)(=O)N(C)C)n1 (configuration not stated) was -14.18%

====

Could you please report measured Percent Effect for the items listed next?
# Tested on: Wolbachia pipientis
# ASSAY PROCEDURE: Anti-Wolbachia Cell-Based Screen
# Format: functional
# Set-up: scale not given: in the data most compounds retested in dose-response had high values
# CONDITION DESCRIPTION: 5 µM
Among all 48,000 compounds or so, about 13,000 (27%) showed an effect of 50% or more. Some of the results follow.
Report the value in % with no unit label.

Lab note: measured Percent Effect of `CC1CCN(C(=O)[C@H]2C[C@@H]3CCN(CC4CCOCC4)C[C@H]3O2)CC1.O=C(O)C(F)(F)F` was -1.273

Percent Effect recorded for this compound, `CCN(CC)C(=O)[C@@H]1C[C@H](N)CN1C(=O)c1cc2c([nH]c1=O)CCC2` , is -7.026

// Percent Effect lookup, compound = `CC1CCN(C(=O)[C@H]2C[C@@H]3CCN(CC4CCOCC4)C[C@@H]3O2)CC1.O=C(O)C(F)(F)F` , result: -3.152

GET /value?item= `O=C(O)C(F)(F)F.O=C([C@H]1C[C@H]2OCC[C@H]2N(CC2CCOCC2)C1)N1CCCC1` &field=Percent Effect returns 10.32

====

Kindly state Percent Effect for each of the entries shown.
# System: Wolbachia pipientis
# ASSAY PROCEDURE: Anti-Wolbachia Cell-Based Screen
# Assay type: functional
# Design: scale not given: in the data most compounds retested in dose-response had high values
# CONDITION DESCRIPTION: 5 µM
About 13,000 (27%) of roughly 48,000 compounds showed an effect of 50% or more. The list shows a part of the results.
Please respond with the number in % and leave the unit unwritten.

For reference, reported Percent Effect for `Cc1ccc2c(c1)C(=O)CC1(CCN(Cc3ccccc3)CC1)O2` stands at 106.6

compound CCC(CC)(CNC(=O)OC(C)(C)C)NC(=O)C1CCCO1 (centres undefined) , Percent Effect observed: -2.751

compound `CC(C)(O)CCc1cccc(C(=O)N2CCC3(CCO3)CC2)c1` , Percent Effect observed: 8.25

// recorded Percent Effect for `CO[C@H]1C[C@@H](O)C12CCN(C(=O)c1cccc(CCC(C)(C)O)c1)CC2` : -1.029

Record `Cc1cnn(CCNCc2c(C)nn(Cc3ccccc3)c2C)c1` . Reported Percent Effect: -5.977

Query `CC(C)(O)CCc1cccc(C(=O)N2CCC[C@H]2CN2CCCC2)c1` yields Percent Effect of 96.29

Form field Percent Effect, entry `Cc1ccc(F)c(C(=O)N2CCN(S(C)(=O)=O)[C@@H](C)C2)c1` : 7.436

Just so you know, measured Percent Effect for `CCSc1cc(C(=O)N(C(C)C)C2CC2)ccn1` came out at -12.03

What the record says about `CS(=O)(=O)CC(=O)N(CCN1CCOCC1)Cc1ccco1` : Percent Effect is -25.1

Short answer for Cc1ccc(C2C3=C(COC3=O)Nc3[nH]nc(C)c32)cc1C (centres undefined) : Percent Effect was 8.246

Summary for this compound, `O=C(O)c1ccnc(SCC(F)(F)F)c1` : Percent Effect is 103

What the record says about `CCc1noc(CC)c1CC(=O)N1CCN(C(=O)C2CCCC2)CC1` : Percent Effect is -21.61

Quick note, Percent Effect for COc1ccc(CN2CCC3(CC(=O)N(c4cccc(F)c4)C3)C2)cc1.O=C(O)C(F)(F)F (centres undefined) landed at 28.15

The measured Percent Effect associated with Cc1nc(C)n(C2CCCN(C(=O)CCOCC(C)C)C2)n1 (centres undefined) reads 96.93

Recorded result, `CN(CCN1CCOCC1)C(=O)CCc1ccc(C(F)(F)F)cc1` , Percent Effect: -5.006

Query `CC(=O)NCC(=O)N(CCN1CCOCC1)Cc1ccco1` yields Percent Effect of -7.485

The measured Percent Effect associated with `COCc1ccc(CN[C@H]2C[C@@H](Cc3cc(CCO)on3)C2(C)C)o1` reads -18.1

Value of measured Percent Effect for the entry `COCCN(Cc1coc(-c2ccc(OC)cc2)n1)C1CC1` : 2.104

Entry `O=C(O)c1ccnc(SCc2ccccc2)c1` ; Percent Effect = 93.4

Memo: Cc1nc(C)n(C2CCCN(C(=O)CCOC(C)C)C2)n1 (centres undefined) , reported Percent Effect: 104.7

Record Cc1nc(C)n(C2CCCN(C(=O)c3csc(C(C)C)n3)C2)n1 (centres undefined) . Reported Percent Effect: -3.924

Form field Percent Effect, entry CC(C)(O)CCc1cccc(C(=O)NCCC2CCOC2)c1 (centres undefined) : -27.94

# Percent Effect of `CCSc1cc(C(=O)NCCC(=O)Nc2ccccn2)ccn1` = -16.79

`CCSc1cc(C(=O)N(CC(F)F)C(C)C)ccn1` yielded Percent Effect of -6.776
